# measured_on: IRAK4 (Homo sapiens, UniProt Q9NWZ3)
# Construct: endogenous in cells; host or cells: THP-1 cells
# test_details: LVL THP1 HTRF (THP1 Homogeneous Time Resolved Fluorescence)
# Type: cell-based
# conditions_used: THP1 cells, 18 h incubation with compound
observable: LVL THP1 HTRF YMIN (%)

Example entries and their recorded answers appear below.
compound: C[C@H](C#N)Nc1cc(-n2ncc3cc(C#N)c(N)nc32)ncc1-n1cc([C@H]2CC[C@H](CCN3CCN(c4ccc([C@@]5(C)CCC(=O)NC5=O)nn4)CC3)CC2)nn1 (single isomer, unassigned) [P-309]
observable: LVL THP1 HTRF YMIN
recorded_measurement: 96.8
--
compound: C[C@H](C#N)Nc1cc(-n2ncc3cc(C#N)c(N)nc32)ncc1-n1cc([C@H]2CC[C@H](CCN3CCN(c4ccc([C@@]5(C)CCC(=O)NC5=O)cn4)[C@H](C)C3)CC2)nn1 (single isomer, unassigned)
observable: LVL THP1 HTRF YMIN
recorded_measurement: 8.7

[1] C[C@H](C#N)Nc1cc(Nc2ncc(Cl)cc2Cl)ncc1-n1cc([C@H]2CC[C@H](CCN3CCN(c4ccc(C5CCC(=O)NC5=O)cc4)CC3)CC2)nn1 (some centres unmarked)
[2] COc1cc([C@@]2(C)CCC(=O)NC2=O)ccc1N1CCN(CC[C@H]2CC[C@H](c3cn(-c4cnc(-n5ncc6cc(C#N)c(N)nc65)cc4N[C@H](C)C#N)nn3)CC2)C[C@@H]1C (single isomer, unassigned) [P-303]
[3] C[C@H](C#N)Nc1cc(-n2ncc3cc(C#N)cnc32)ncc1-n1cc([C@H]2CC[C@H](CCN3CCCN(c4ccc(C5CCC(=O)NC5=O)cc4)CC3)CC2)nn1 (some centres unmarked)
Exercise: Parameters: sort_field (LVL THP1 HTRF YMIN), sort_dir (desc). Return value: ordered labels per request.
Solution: 2, 1, 3
(2: 90.1%, 1: 12.1%, 3: 4.0%)

====

# measured_on: IRAK4 (Homo sapiens)
# Construct: endogenous in cells
# Sequence (Q9NWZ3 1-460): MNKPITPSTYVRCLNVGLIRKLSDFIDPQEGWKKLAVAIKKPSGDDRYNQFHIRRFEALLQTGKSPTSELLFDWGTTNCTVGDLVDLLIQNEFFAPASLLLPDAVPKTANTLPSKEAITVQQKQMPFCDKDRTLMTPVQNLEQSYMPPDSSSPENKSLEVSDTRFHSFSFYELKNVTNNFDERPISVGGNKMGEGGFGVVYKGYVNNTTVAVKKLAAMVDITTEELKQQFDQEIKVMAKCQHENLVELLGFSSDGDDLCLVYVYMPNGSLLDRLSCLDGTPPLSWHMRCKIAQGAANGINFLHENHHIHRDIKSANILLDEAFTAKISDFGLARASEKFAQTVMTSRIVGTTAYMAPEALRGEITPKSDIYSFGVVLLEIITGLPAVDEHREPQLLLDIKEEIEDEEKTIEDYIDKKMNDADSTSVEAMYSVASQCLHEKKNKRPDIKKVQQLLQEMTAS
# test_details: ALE THP1 HTRF (Advanced Lipoxidation End Product THP1 Homogeneous Time Resolved Fluorescence)
# conditions_used: THP1 cells
pEC50: −log10 of the molar value. Structures can show the parent of a compound that is named as a salt.
observable: pEC50

molecule: N#Cc1cnc2c(cnn2-c2cc(N[C@H]3CCC[C@@H]3O)c(C(=O)NC3CCC(CCN4CCN(c5ccc(C6CCC(=O)NC6=O)cc5)CC4)CC3)cn2)c1 (stereo partly drawn) [P-63]
measured_on: IRAK4 (Homo sapiens)
pEC50: 8.22

molecule: N#Cc1cnc2c(cnn2-c2cc(NC3CCCC3)c(C(=O)NC3CCC(O)(CN4CCN(c5ccc6c(c5)C(=O)N(C5CCC(=O)NC5=O)C6=O)CC4)CC3)cn2)c1 (stereo not drawn) [P-30]
measured_on: IRAK4 (Homo sapiens)
pEC50: 5.48

molecule: C[C@H]1CN(c2ccc3c(c2)C(=O)N(C2CCC(=O)NC2=O)C3=O)CCN1C(=O)C1CCC(NC(=O)c2cnc(Nc3ccc4ncsc4c3)cc2NC2CCCC2)CC1 (stereo partly drawn) [P-8]
measured_on: IRAK4 (Homo sapiens)
pEC50: 7.57

molecule: N#Cc1cnc2c(c1)c(F)cn2-c1cc(NC2CC2)c(C(=O)NC2CCC(CCN3CCN(c4ccc(C5CCC(=O)NC5=O)cc4)CC3)CC2)cn1 (stereo not drawn) [P-101]
measured_on: IRAK4 (Homo sapiens)
pEC50: 7.04

molecule: CN(C(=O)C1CCN(c2ccc3c(c2)C(=O)N(C2CCC(=O)NC2=O)C3)CC1)C1CCC(n2cc(-c3cnc(-n4ncc5cc(C#N)cnc54)cc3NC3CCCC3)nn2)CC1 (stereo not drawn) [P-19]
measured_on: IRAK4 (Homo sapiens)
pEC50: 7.77

molecule: N#Cc1cnc2c(cnn2-c2cc(NC3CCCC3)c(C(=O)N[C@H]3CC[C@H](CN4CCN(c5ccc6c(c5)C(=O)N(C5CCC(=O)NC5=O)C6)CC4)CC3)cn2)c1 (stereo partly drawn) [P-24]
measured_on: IRAK4 (Homo sapiens)
pEC50: 6.49

[a] CN(CC1CCC(NC(=O)c2cnc(-n3ncc4cc(C#N)cnc43)cc2NC2CCCC2)CC1)C1CCN(c2ccc(C3CCC(=O)NC3=O)cc2)CC1 (stereo not drawn) [P-60]
[b] N#Cc1cnc2c(cnn2-c2cc(NC3CCCC3)c(-n3cc(C4CCC(NC(=O)C5CCN(c6ccc7c(c6)C(=O)N(C6CCC(=O)NC6=O)C7)CC5)CC4)nn3)cn2)c1 (stereo not drawn) [P-33]
[c] N#Cc1cnc2c(cnn2-c2cc(NC[C@H]3CCCO3)c(C(=O)N[C@H]3CC[C@H](CCN4CCN(c5ccc(C6CCC(=O)NC6=O)cc5)CC4)CC3)cn2)c1 (stereo partly drawn) [P-106]
[d] O=C1CCC(c2ccc(N3CCN(CCC4CCC(NC(=O)c5cnc(Nc6ccc7ncsc7c6)cc5NC5CCCC5)CC4)CC3)cc2)C(=O)N1 (stereo not drawn) [P-73]
Exercise: Number of molecules to sort: 4. Sort criterion: pEC50, ascending. Kindly provide the labels arranged according to the requested ordering.
Solution: a, c, d, b
(a: 6.02, c: 6.61, d: 7.24, b: 8.10)

[1] C[C@H](C#N)Nc1cc(-n2ncc3cc(C#N)cnc32)ncc1-n1cc([C@H]2CC[C@H](CCN3CCN(c4ccc(C5CCC(=O)NC5=O)cc4)CC3)CC2)nn1 (stereo partly drawn) [P-139, formic acid salt]
[2] N#Cc1cnc2c(cnn2-c2cc(NC3CCCC3)c(-c3cn([C@H]4CC[C@H](NC(=O)C5CCN(c6ccc7c(c6)C(=O)N(C6CCC(=O)NC6=O)C7)CC5)CC4)nn3)cn2)c1 (stereo partly drawn) [P-16]
Exercise: Which entry has a larger number for pEC50, 1 or 2 ? Mark your selection by writing its label.
Solution: 1

Source listed as patent US20240109881A1.
